Hello, the source for this data is patent US20090304692A1, in case you need it.

test_target: Human mTOR (FLAG-TOR) (Homo sapiens, UniProt P42345)
Sequence (P42345 1360-2549 limits assumed): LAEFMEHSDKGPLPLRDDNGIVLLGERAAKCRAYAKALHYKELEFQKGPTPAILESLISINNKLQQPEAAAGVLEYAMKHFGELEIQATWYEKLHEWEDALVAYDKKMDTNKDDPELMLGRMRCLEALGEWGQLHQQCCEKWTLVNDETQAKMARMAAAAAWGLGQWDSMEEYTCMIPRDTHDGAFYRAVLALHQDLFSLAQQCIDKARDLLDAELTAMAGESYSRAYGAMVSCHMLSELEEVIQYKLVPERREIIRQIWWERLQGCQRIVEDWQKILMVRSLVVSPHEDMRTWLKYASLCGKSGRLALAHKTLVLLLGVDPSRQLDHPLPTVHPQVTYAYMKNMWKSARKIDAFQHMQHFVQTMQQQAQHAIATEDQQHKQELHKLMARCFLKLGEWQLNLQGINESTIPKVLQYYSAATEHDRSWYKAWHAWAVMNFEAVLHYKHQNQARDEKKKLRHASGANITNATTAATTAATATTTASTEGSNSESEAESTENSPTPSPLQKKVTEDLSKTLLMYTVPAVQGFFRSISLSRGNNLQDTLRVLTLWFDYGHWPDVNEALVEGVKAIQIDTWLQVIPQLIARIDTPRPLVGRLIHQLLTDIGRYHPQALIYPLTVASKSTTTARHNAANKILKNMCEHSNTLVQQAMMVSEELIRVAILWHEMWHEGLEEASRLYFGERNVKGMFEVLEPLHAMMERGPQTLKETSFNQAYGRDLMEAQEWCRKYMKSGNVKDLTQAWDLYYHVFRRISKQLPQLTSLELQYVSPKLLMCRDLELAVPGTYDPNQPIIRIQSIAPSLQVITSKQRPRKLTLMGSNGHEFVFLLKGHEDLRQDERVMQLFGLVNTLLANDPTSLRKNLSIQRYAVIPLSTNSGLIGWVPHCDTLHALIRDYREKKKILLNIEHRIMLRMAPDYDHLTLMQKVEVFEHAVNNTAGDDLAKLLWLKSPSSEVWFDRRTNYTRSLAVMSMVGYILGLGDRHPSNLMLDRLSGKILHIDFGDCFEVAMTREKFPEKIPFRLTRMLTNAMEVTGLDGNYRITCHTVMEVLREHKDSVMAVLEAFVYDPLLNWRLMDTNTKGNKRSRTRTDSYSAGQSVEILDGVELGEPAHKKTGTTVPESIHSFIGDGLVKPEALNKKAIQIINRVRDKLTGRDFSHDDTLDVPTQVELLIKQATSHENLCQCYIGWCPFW
assay_overview: mTOR kinase assay (DELFIA format, purified enzyme)
Type: biochemical
test_settings: read-out: IC50 mTOR
readout_name: IC50 (nM)

{"columns": ["compound", "reading_unit", "quantitative_readout"],
 "data": [
  ["C[C@@H]1COCCN1c1nc(-c2ccc(NC(=O)Nc3ccc(N4CCNCC4)cc3)cc2)nc(C2CCOCC2)n1 [Example 422]", "nM", 0.79],
  ["CN(C)C(=O)N1CCN(c2nc(-c3ccc(NC(=O)Nc4ccncc4)cc3)nc(N3CCOCC3)n2)CC1 [Example 642]", "nM", 1],
  ["CCc1nc(-c2ccc(NC(=O)Nc3cccc(C(=O)N4CCN(C)CC4)c3)cc2)nc(N2CCOCC2)n1 [Example 589]", "nM", 57],
  ["C[C@@H](CO)Nc1nc(-c2ccc(NC(=O)Nc3cccnc3)cc2)nc(N2CC3CCC(C2)O3)n1 [Example 259]", "nM", 2.4],
  ["O=C(Nc1ccncc1)Nc1ccc(-c2nc(N3CCOCC3)nc(N3CCOCC3)n2)cc1 [Example 1]", "nM", 1.3]
]}

[P] CC(C)(C)OC(=O)N1CC(Nc2nc(-c3ccc(NC(=O)Nc4ccncc4)cc3)nc(N3CCOCC3)n2)C1 [Example 21]
[Q] CN1CCC(NC(=O)Nc2ccc(-c3nc(N4CCOCC4)nc(N4CCOCC4)n3)cc2)CC1 [Example 98]
Prompt line: Look at P and Q . Which one has the lower recorded IC50 number? Respond using the label that marks the chosen record.
Response line: P

[I] C[C@@H]1COCCN1c1nc(-c2ccc(NC(=O)Nc3ccc(C(=O)N4CCN(C)CC4)cc3)cc2)nc(C2CCOCC2)n1 [Example 431]
[II] CN1CCN(C(=O)c2ccc(NC(=O)Nc3ccc(-c4nc(N5CCOCC5)nc(N5CCN(C(=O)N(C)C)CC5)n4)cc3)cc2)CC1 [Example 643]
[III] CC(C)c1nc(-c2ccc(NC(=O)Nc3ccc(C(=O)NC4CCC4)cc3)cc2)nc(N2CCOCC2)n1 [Example 311]
[IV] CN(C)CCN(C)C(=O)c1ccc(NC(=O)Nc2ccc(-c3nc(N4CCC4)nc(N4CCOCC4)n3)cc2)cc1 [Example 197]
Prompt line: hey, can you rank those compounds up there by IC50? biggest number first please In your reply, arrange the labels in the requested order.
Response line: IV, III, II, I
(IV: 24 nM, III: 12 nM, II: 7 nM, I: 1 nM)
